Data provenance: ChEMBL document CHEMBL3044966

# Tested on: photosystem 2
# run description: Inhibition of photosynthesis in Vitis vinifera cv. Pinot noir assessed as reduction in relative quantum yield of photo system 2 at 1.2 mM measured 7 days post compound application relative to untreated control
# Format: organism-based
# experimental setup: in vivo

compound	inhibition at 168 h, 1200 µM
N#Cc1c[nH]cc1-c1cccc2c1OC(F)(F)O2 [FLUDIOXONIL]	10%

----------
# Test system: photosystem 2
# run description: Inhibition of photosynthesis in Vitis vinifera cv. Pinot noir assessed as reduction in relative quantum yield of photo system 2 at 6 mM measured 7 days post compound application relative to untreated control
# Assay type: organism-based
# experimental setup: in vivo

compound	inhibition at 168 h, 6000 µM, %
N#Cc1c[nH]cc1-c1cccc2c1OC(F)(F)O2 [FLUDIOXONIL]	7
